- Tested on: blackgrass
- procedure details: Test B pre/postemergence blackgrass
- Assay type: in vivo, Alopecurus myosuroides
- reported conditions: Preemergence, Rate 62 g/ha; scale of 0 to 10 where 0 is no effect and 10 is complete control
Catalogue of compounds with associated Blackgrass plant response rating
Form rule: numeric answer, no unit written next to it.

Use these answered entries as a reference point.
compound: C=C(Cl)Cn1c(=O)on(C(=O)N(c2ccc(F)cc2F)C(C)C)c1=O [Compound 634]
target or test system: blackgrass
endpoint value: 4
//
compound: CC(C)N(C(=O)n1oc(=O)n(CC(F)F)c1=O)c1ccc(F)cc1 [Compound 710]
target or test system: blackgrass
endpoint value: 9

Incoming: What measured Blackgrass plant response rating goes with Cc1nc(C)c(Cn2c(=O)on(C(=O)N(c3ccc(F)cc3)C(C)C)c2=O)s1 [Compound 232] ?
Outgoing: 2
